Listed compounds paired with reported melting point

{"columns": ["COMPOUND", "melting point"],
 "data": [
  ["CCNC(=O)C1CC(C)(C)CCC1C(C)C (racemic) [rac-14a-2]", "101 to 105 °C"]
]}

Task item: Which melting point value is on record for COc1ccc(NC(=O)C2CC(C)(C)CCC2C(C)C)cc1O (racemic) [rac-14a-41] ?
Reply: 93 to 98 °C

Task item: Which melting point value is on record for CC(C)C1CCC(C)(C)CC1C(=O)Nc1ccc(CC#N)cc1 (racemic) [rac-14a-38] ?
Reply: 121 to 122 °C

Task item: Which melting point value is on record for CC(C)C1CCC(C)(C)CC1C(=O)Nc1ccc(CO)cc1 (racemic) [rac-14a-47] ?
Reply: 165 to 172 °C

Task item: Which melting point value is on record for CC(C)C1CCC(C)(C)CC1C(N)=O (centres unmarked) [14a-50] ?
Reply: 141 to 145 °C

Task item: Which melting point value is on record for CC(C)C1CCC(C)(C)CC1C(=O)NCCc1ccccn1 (racemic) [rac-14a-16] ?
Reply: 104 to 107 °C

Task item: Which melting point value is on record for COc1ccc(NC(=O)C2CC(C)(C)CCC2C(C)C)cc1 (racemic) [rac-14a-34] ?
Reply: 115 to 118 °C

Task item: Which melting point value is on record for CCOC(=O)CNC(=O)C1CC(C)(C)CCC1C(C)C (racemic) [rac-14a-23] ?
Reply: 104 to 107 °C

---

assay: Sensory evaluation of aqueous solutions against comparative compounds; type: in vivo; settings: 30 ppm aqueous solution; vs Comparative Compound 3
OBSERVABLE: course / persistence of cool feeling intensity

{"columns": ["MOLECULE", "OBSERVED_VALUE"],
 "data": [
  ["CC(C)C1CCC(C)(C)CC1C(=O)Nc1ccc(CO)cc1 (racemic) [rac-14a-47]", "also has persistence"],
  ["COc1ccc(NC(=O)C2CC(C)(C)CCC2C(C)C)cc1O (racemic) [rac-14a-41]", "also has persistence"]
]}
